Target: Golgi-associated PDZ and coiled-coil motif-containing protein (Homo sapiens) (UniProt Q9HD26)
Experiment: CAL PDZ domain peptide-binding inhibitors, dose response, biochemical, fluorescence polarization, untagged CAL PDZ, cherry-pick (AID 602267)
Settings: purified CAL PDZ, TMR-peptide fluorescence polarization, 1 h; at 50 µM (top of the series)
The source made the active and inactive calls.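 Rule for the calls: active = signal falls with dose and the fitted half-maximal concentration is at or below twice the top valid tested dose; inconclusive = flat curve with 30 to 70% inhibition, or poor fit; inactive = wrong direction, flat within 30%, or potency beyond limit.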
endpoint label: activity change, negative = inhibition

Some entries whose results are on file:
chemical_structure=CCN1C(=O)CS/C1=N\S(=O)(=O)c1ccc(Cl)cc1 endpoint_label="activity change, negative = inhibition" value_reported=inactive
chemical_structure=CN1CCN(c2ccccc2NC(=O)c2ccc(N3CCCC3)c([N+](=O)[O-])c2)CC1 endpoint_label="activity change, negative = inhibition" value_reported=inactive
chemical_structure=Oc1ccc(/C=N\Nc2nncc(-c3ccccc3)n2)cc1 endpoint_label="activity change, negative = inhibition" value_reported=inactive
chemical_structure=O=C(NCc1cccnc1)/C(=C/c1ccc(-c2cccc(C(F)(F)F)c2)o1)NC(=O)c1ccccc1 endpoint_label="activity change, negative = inhibition" value_reported=inactive

--- query ---
Consider COC(=O)CN1C(=O)N/C(=C/c2cc(Cl)c(OC)c(OC)c2)C1=O . Its measured activity change, negative = inhibition is inactive

====

Molecular target: UniProt Q9HD26
Assay: CAL PDZ domain peptide-binding inhibitors, dose response, biochemical, fluorescence polarization, untagged CAL PDZ, cherry-pick (AID 602267)
Settings: purified CAL PDZ, TMR-peptide fluorescence polarization, 1 h; at 50 µM (top of the series)
Active and inactive are the calls of the source.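 The calls were made as follows: active = signal falls with dose and the fitted half-maximal concentration is at or below twice the top valid tested dose; inconclusive = flat curve with 30 to 70% inhibition, or poor fit; inactive = wrong direction, flat within 30%, or potency beyond limit.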
endpoint label: activity change, negative = inhibition

In the examples that follow, each entry is paired with its recorded activity change, negative = inhibition.
compound=CN(C)S(=O)(=O)c1ccc(Cl)c(NC(=O)CSc2nnnn2-c2ccc(O)cc2)c1 assay_target="UniProt Q9HD26" endpoint_label="activity change, negative = inhibition" value_reported=inactive
compound="CN(c1nc(-c2ccc(Br)cc2)cs1)C1CCS(=O)(=O)C1 (centres undefined)" assay_target="UniProt Q9HD26" endpoint_label="activity change, negative = inhibition" value_reported=inactive
compound=N#Cc1ccc(CC(=O)c2ccccc2)[nH]c1=O assay_target="UniProt Q9HD26" endpoint_label="activity change, negative = inhibition" value_reported=inactive
compound=CCN(CC)CCC(=O)N1c2ccccc2CCc2ccc(NC(=O)OC(C)C)cc21 assay_target="UniProt Q9HD26" endpoint_label="activity change, negative = inhibition" value_reported=inactive
compound=COc1cc(NS(=O)(=O)c2ccc(NC(=S)Nc3ccccc3)cc2)nc(OC)n1 assay_target="UniProt Q9HD26" endpoint_label="activity change, negative = inhibition" value_reported=inactive
compound=Fc1ccc(-n2c(-c3ccc4ccccc4n3)n[nH]c2=S)cc1Cl assay_target="UniProt Q9HD26" endpoint_label="activity change, negative = inhibition" value_reported=inactive

Reported activity change, negative = inhibition (UniProt Q9HD26) for entry COc1ccc(C(=O)N2CCCc3ccccc32)cc1Br is inactive

// compound COc1cc(C)cc(CN2CC=C(c3ccccc3)CC2)c1O , assay UniProt Q9HD26, activity change, negative = inhibition value: inactive

Measured activity change, negative = inhibition (UniProt Q9HD26), entry C/C(=N\NC(=O)C(O)c1ccccc1)c1ccc(Cl)s1 (centres undefined) : inactive

Item CCOC(=O)CCC(=O)Nc1ccc(S(=O)(=O)N2CCC(C)CC2)cc1 was tested on UniProt Q9HD26; the reported activity change, negative = inhibition is inactive

Reading of activity change, negative = inhibition for CCN1CCN(S(=O)(=O)c2ccc(OC)c3ccccc23)CC1 with UniProt Q9HD26: inactive

Value (activity change, negative = inhibition, UniProt Q9HD26) for record COc1ccc(C(=O)Nc2nccs2)cc1 = inactive
